Where do these numbers come from? They come from ChEMBL document CHEMBL1926583.

So I've got a bunch of compounds here, and I need their pKi values.
# targetSystem: Thymidylate kinase (Mycobacterium tuberculosis)
# Sequence (P9WKE1 whole entry): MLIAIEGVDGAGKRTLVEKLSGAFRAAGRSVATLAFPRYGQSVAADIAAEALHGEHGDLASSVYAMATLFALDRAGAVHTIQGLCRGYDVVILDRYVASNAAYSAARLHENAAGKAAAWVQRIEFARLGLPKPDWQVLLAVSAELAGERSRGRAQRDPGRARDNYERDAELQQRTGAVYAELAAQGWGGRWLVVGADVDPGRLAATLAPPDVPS
Please report pKi as the negative decimal logarithm of the molar concentration, giving only the number.

Which pKi value is on record for `Cc1cn([C@@H]2C[C@H](O)[C@@H](CNC(=S)Nc3ccc(Cl)c(C(F)(F)F)c3)O2)c(=O)[nH]c1=S` ?
6.77

Now the compound `Cc1cn([C@H]2C[C@H](O)[C@@H](Cn3cc(-c4ccc(Cl)cc4)nn3)O2)c(=O)[nH]c1=O`
3.70

Now the compound `Cc1cn([C@H]2C[C@H](O)[C@@H](CNC(=S)Nc3ccc(Cl)c(C(F)(F)F)c3)O2)c(=O)[nH]c1=O`
4.84

Now the compound `Cc1cn([C@H]2C[C@H](n3cc(Cc4ccccc4)nn3)[C@@H](CO)O2)c(=O)[nH]c1=O`
5.57

* * *

# methodDescription: Selectivity index, ratio of Ki for human TMPK to Ki for Mycobacterium tuberculosis TMPK
So I've got a bunch of compounds here, and I need their Ratio Ki values.

Which Ratio Ki value is on record for `Cc1cn([C@H]2C[C@H](n3cc(Cc4ccccc4)nn3)[C@@H](CO)O2)c(=O)[nH]c1=O` ?
> 100

Now the compound `Cc1cn([C@H]2C[C@H](NC(=O)Nc3ccc(Cl)c(C(F)(F)F)c3)[C@@H](CO)O2)c(=O)[nH]c1=O`
34

Now the compound `Cc1cn([C@H]2C[C@H](n3nnnc3NCc3ccccc3)[C@@H](CO)O2)c(=O)[nH]c1=O`
> 100

Now the compound `Cc1cn([C@@H]2C[C@H](O)[C@@H](CNC(=S)Nc3ccc(Cl)c(C(F)(F)F)c3)O2)c(=O)[nH]c1=S`
> 100
